Catalogue of CC50 (mean ± SD) values
System: Vero E6 cells
SETUP_CONDITIONS: 72 h

Here are 4 compounds together with their reported answers.
1. CC[C@H](C)[C@H](NC(=O)[C@H](CCC(N)=O)NC(=O)[C@H](CC(C)C)NC(=O)[C@H](C)NC(=O)[C@H](C)NC(=O)CNC(=O)[C@H](C)NC(=O)CNC(=O)[C@H](Cc1ccccc1)NC(C)=O)C(=O)N1CCC[C@H]1C(=O)N[C@@H](Cc1ccccc1)C(=O)N[C@@H](C)C(=O)N[C@@H](CCSC)C(=O)N[C@@H](CCC(N)=O)C(=O)N[C@@H](CCSC)C(N)=O [PNC15] :: > 100 µM
2. CSCC[C@H](NC(=O)[C@H](C)NC(=O)[C@H](Cc1ccccc1)NC(C)=O)C(=O)N[C@@H](CCC(N)=O)C(=O)N[C@@H](CCSC)C(=O)N[C@@H](C)C(=O)N[C@@H](Cc1ccc(O)cc1)C(=O)N[C@@H](CCCNC(=N)N)C(=O)N[C@@H](Cc1ccccc1)C(N)=O [PN9] :: > 100 µM
3. CC[C@H](C)[C@H](NC(=O)[C@H](CCC(N)=O)NC(=O)[C@H](CC(C)C)NC(=O)[C@H](C)NC(=O)[C@H](C)NC(=O)CNC(=O)[C@H](C)NC(=O)CNC(=O)[C@H](Cc1ccccc1)NC(C)=O)C(=O)N1CCC[C@H]1C(=O)N[C@@H](Cc1ccccc1)C(=O)N[C@@H](C)C(=O)N[C@@H](CCSC)C(=O)N[C@@H](CCC(N)=O)C(=O)N[C@@H](C)C(=O)N[C@@H](C)C(=O)N[C@@H](Cc1ccc(O)cc1)C(=O)N[C@@H](CCCNC(=N)N)C(=O)N[C@@H](Cc1ccccc1)C(N)=O [PN19M→A902] :: > 100 µM
4. CC[C@H](C)[C@H](NC(=O)[C@H](CCC(N)=O)NC(=O)[C@H](CC(C)C)NC(=O)[C@H](C)NC(=O)[C@H](C)NC(=O)CNC(=O)[C@H](C)NC(=O)CNC(=O)[C@H](Cc1ccccc1)NC(=O)[C@@H](NC(=O)[C@H](Cc1c[nH]c2ccccc12)NC(C)=O)[C@@H](C)O)C(=O)N1CCC[C@H]1C(=O)N[C@@H](Cc1ccccc1)C(=O)N[C@@H](C)C(=O)N[C@@H](CCSC)C(=O)N[C@@H](CCC(N)=O)C(=O)N[C@@H](CCSC)C(=O)N[C@@H](C)C(=O)N[C@@H](Cc1ccc(O)cc1)C(N)=O [PNC19] :: > 100 µM

Continue with the compound presented below.
Q: Report CC50 (mean ± SD) for CC[C@H](C)[C@H](NC(=O)[C@H](CCC(N)=O)NC(=O)[C@H](C)NC(=O)[C@H](C)NC(=O)[C@H](C)NC(=O)CNC(=O)[C@H](C)NC(=O)CNC(=O)[C@H](Cc1ccccc1)NC(C)=O)C(=O)N1CCC[C@H]1C(=O)N[C@@H](Cc1ccccc1)C(=O)N[C@@H](C)C(=O)N[C@@H](CCSC)C(=O)N[C@@H](CCC(N)=O)C(=O)N[C@@H](CCSC)C(=O)N[C@@H](C)C(=O)N[C@@H](Cc1ccc(O)cc1)C(=O)N[C@@H](CCCNC(=N)N)C(=O)N[C@@H](Cc1ccccc1)C(N)=O [PN19L→A894] tested on Vero E6 cells.
A: > 100 µM
